Biological target: RNR (RNR1:RNR2 1:1) (Homo sapiens, UniProt P23921+P31350)
Sequence (P23921 1-792): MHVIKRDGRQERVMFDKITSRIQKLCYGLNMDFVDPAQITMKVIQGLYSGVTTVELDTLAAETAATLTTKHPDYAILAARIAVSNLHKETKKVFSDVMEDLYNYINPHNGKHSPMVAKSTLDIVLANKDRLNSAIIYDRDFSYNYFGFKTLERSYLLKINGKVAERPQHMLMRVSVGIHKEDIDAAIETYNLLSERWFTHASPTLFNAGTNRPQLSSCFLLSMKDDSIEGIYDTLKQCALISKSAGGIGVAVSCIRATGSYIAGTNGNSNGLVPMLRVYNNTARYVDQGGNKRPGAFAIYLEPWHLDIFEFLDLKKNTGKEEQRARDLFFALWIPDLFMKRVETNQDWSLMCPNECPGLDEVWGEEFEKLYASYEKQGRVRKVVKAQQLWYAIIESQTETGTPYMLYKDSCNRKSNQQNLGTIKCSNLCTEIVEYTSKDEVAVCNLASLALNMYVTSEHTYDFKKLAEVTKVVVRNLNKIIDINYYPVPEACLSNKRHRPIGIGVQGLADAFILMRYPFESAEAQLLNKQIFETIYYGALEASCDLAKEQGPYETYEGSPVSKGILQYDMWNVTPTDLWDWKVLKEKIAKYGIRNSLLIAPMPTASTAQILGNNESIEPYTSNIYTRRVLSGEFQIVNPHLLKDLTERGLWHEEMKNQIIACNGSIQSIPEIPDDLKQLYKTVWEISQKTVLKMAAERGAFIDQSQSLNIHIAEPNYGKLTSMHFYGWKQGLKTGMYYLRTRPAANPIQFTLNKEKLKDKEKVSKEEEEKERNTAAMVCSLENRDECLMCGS
Sequence (P31350 1-389): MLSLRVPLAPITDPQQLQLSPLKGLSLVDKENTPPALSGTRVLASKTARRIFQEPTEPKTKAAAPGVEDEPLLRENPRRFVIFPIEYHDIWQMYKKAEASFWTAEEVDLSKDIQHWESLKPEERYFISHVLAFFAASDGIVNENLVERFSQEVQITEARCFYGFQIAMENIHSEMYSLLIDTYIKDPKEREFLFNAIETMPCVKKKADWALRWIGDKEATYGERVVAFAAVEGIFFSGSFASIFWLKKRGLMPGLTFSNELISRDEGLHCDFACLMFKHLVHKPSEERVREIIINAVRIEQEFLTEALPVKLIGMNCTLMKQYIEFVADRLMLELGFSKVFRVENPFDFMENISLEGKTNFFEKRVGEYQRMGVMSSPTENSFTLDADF
Experiment: RNR enzyme activity, rapid-fire mass spectrometry (RF/MS) assay
Settings: RNR 50 nM, 1:1 (RNR1:RNR2); CDP 5 μM; ATP 1 mM; 37° C., 45 min; compounds screened up to 50 μM
As shown below, each of these molecules has a reported IC50 value.

The cases that follow already have their IC50 on record.
MOLECULE | RESULT
CN(c1ccc(O)cc1)C1CN(S(=O)(=O)c2ccc3[nH]ccc3c2)C1 | ≤ 50 nM
O=S(=O)(c1cccc2cc[nH]c12)N1CCN(c2ccc(O)cc2)CC1 | 100 to 500 nM
O=S(=O)(c1ccc2cc[nH]c2c1)N1CCN(c2ccc(O)cc2)CC12CCC2 | 50 to 100 nM
O=S(=O)(c1ccc2cc[nH]c2c1)N1[C@@H]2CCC[C@H]1CN(c1ccc(O)cc1)C2 | ≤ 50 nM
CN(CC1CCN1S(=O)(=O)c1ccc2cc[nH]c2c1)c1ccc(O)cc1 (stereo not drawn) | 50 to 100 nM

// below: IC50 requested for another molecule
// O=S(=O)(c1ccc2cc[nH]c2c1)N1CCCN(c2ccc(O)cc2)CC1 : IC50 value = ≤ 50 nM
